System: SNB-75
Experiment: NCI tumour cell line growth inhibition, 48 h
The source made the active and inactive calls. No stated cut-off is given here; in the data, active = GI50 up to about 1.1 µM and inactive = higher.
GI50 for assorted compounds

Here are 3 compounds together with their reported answers.
[
  {
    "LINE_NOTATION": "CC(C)[C@@H]1NC(=O)[C@@H]2N=C(O[C@H]2C)[C@H](C(C)C)NC(=O)C2N=C1O[C@H]2C",
    "GI50": "> 100 µM (inactive)"
  },
  {
    "LINE_NOTATION": "Oc1cccc(/C=N/N=c2/[nH][nH]/c(=N/N=C/c3cccc(O)c3)c3ccccc23)c1",
    "GI50": "12.9 µM (inactive)"
  },
  {
    "LINE_NOTATION": "Cc1cc(C)c2c(c1)CSCc1cc(C)cc(C)c1-2",
    "GI50": "37.3 µM (inactive)"
  }
]

q: Look up and report measured GI50 for this entry: CCN(CC)CCNc1ccc2ncn3c4ccc(OC)cc4c(=O)c1c23
a: 7.08 µM (inactive)

====

GI50 for assorted compounds
Tested on: OVCAR-5
Experiment: NCI tumour cell line growth inhibition, 48 h
Activity calls are given as the source filed them. Rule as the data show it: active = GI50 up to about 1.1 µM and inactive = higher.

Here are 2 compounds together with their reported answers.
[
  {
    "COMPOUND": "CCOC(=O)Cn1c(C(F)(F)F)nc2nc(Cl)c(Cl)nc21",
    "GI50": "> 100 µM (inactive)"
  },
  {
    "COMPOUND": "NNc1cnn(-c2ccccc2)c(=O)c1Cl",
    "GI50": "> 100 µM (inactive)"
  }
]

q: Look up and report measured GI50 for this entry: CC(C(=O)O)/C(=C\c1ccc2c(c1)OCO2)C(=O)O (centres undefined)
a: > 10 µM (inactive)

q: Look up and report measured GI50 for this entry: Fc1ccc(/N=C2C=C/C(=N\c3ccc(F)cc3)c3ccccc3\2)cc1
a: > 100 µM (inactive)

q: Look up and report measured GI50 for this entry: Nc1nc(N)c2nc(CNc3ccc(C(=O)NC(CCC(=O)O)C(=O)O)cc3F)cnc2n1 (centres undefined)
a: > 100 µM (inactive)

====

GI50 for assorted molecules
System: SN12C
Assay: NCI tumour cell line growth inhibition, 48 h
Active and inactive are the calls of the source. No stated cut-off is given here; in the data, active = GI50 up to about 1.1 µM and inactive = higher.

Here are 5 molecules together with their reported answers.
[
  {
    "MOLECULE": "Cc1csc2nc3c(cnn3C)c(=S)n12",
    "GI50": "24.2 µM (inactive)"
  },
  {
    "MOLECULE": "CCOC(=O)c1c(SCCN(CC)CC)n(-c2ccccc2)c(=S)n(-c2ccccc2)c1=O",
    "GI50": "1.91 µM (inactive)"
  },
  {
    "MOLECULE": "C[N+]1(C)C(c2ccccc2)C(=O)O[B@-]1(F)c1ccccc1 (some centres not stated)",
    "GI50": "> 100 µM (inactive)"
  },
  {
    "MOLECULE": "CCCS(=O)(=O)/C(=C(\\c1ccc(Br)cc1)S(=O)(=O)CCC)c1ccc(Br)cc1",
    "GI50": "> 10 µM (inactive)"
  },
  {
    "MOLECULE": "O=C(Nc1nc2ncn(CC(COc3ccccc3)OC(=O)c3ccccc3)c2c(=O)[nH]1)c1ccccc1 (configuration not stated)",
    "GI50": "> 100 µM (inactive)"
  }
]

q: Look up and report measured GI50 for this entry: N#CC1=C(S)N(C2OC(CO)C(O)C(O)C2O)C(c2ccccc2)=CC1c1ccccc1 (configuration not stated)
a: 72.4 µM (inactive)

q: Look up and report measured GI50 for this entry: COc1cccc(NC(=O)/C(CS(=O)(=O)CCC(C(C)=O)C(C)=O)=N/NC(C)(C)C)c1
a: > 100 µM (inactive)

q: Look up and report measured GI50 for this entry: CC(SC(=S)N1CCCC1)C(=O)Nc1nnc(-c2ccc(Cl)cc2)o1 (configuration not stated)
a: 17.7 µM (inactive)

q: Look up and report measured GI50 for this entry: CC(=O)N/C(=C\c1ccc(/C=C(\NC(C)=O)c2nc3cc(Cl)ccc3[nH]2)cc1)c1nc2ccccc2[nH]1
a: > 100 µM (inactive)

q: Look up and report measured GI50 for this entry: CC(=O)OC1COC(n2nc(N)nc2C)C(OC(C)=O)C1OC(C)=O (configuration not stated)
a: > 100 µM (inactive)

q: Look up and report measured GI50 for this entry: COc1cc(/C=C2\N=C(C)N(n3c(-c4ccccc4)nc4ccccc4c3=O)C2=O)cc(OC)c1OC
a: > 100 µM (inactive)

q: Look up and report measured GI50 for this entry: CCN(CC)CCNc1ccc2ncn3c4ccc(OC)cc4c(=O)c1c23
a: 2.14 µM (inactive)
